Answer each item with its documented MIC S. pneumo. 1175.
# System: Streptococcus pneumoniae 1175
# Format: cell-based
# particulars: Streptococcus pneumoniae 1175; microtiter broth dilution

# example entries with known answers
{"molecule": "CCC1OC(=O)C(C)C(=O)C(C)C(OC2OC(C)CC(N(C)C)C2O)C(C)(OC)CC(C)C(=O)C(C)C2N(CC3CN(C(=O)c4cccnc4)C3)C(=O)OC12C (stereo not drawn)", "MIC S. pneumo. 1175": "0.78 µg/mL"}
{"molecule": "CCC1OC(=O)C(C)C(=O)C(C)C(OC2OC(C)CC(N(C)C)C2O)C(C)(OC)CC(C)C(=O)C(C)C2N(CC3CN(C(=O)c4cccc5ncccc45)C3)C(=O)OC12C (stereo not drawn)", "MIC S. pneumo. 1175": "<0.06 µg/mL"}

Kindly review the next molecule as well.
Input line: Need MIC S. pneumo. 1175, item CCC1OC(=O)C(C)C(=O)C(C)C(OC2OC(C)CC(N(C)C)C2O)C(C)(OC)CC(C)C(=O)C(C)C2N(C3CN(S(=O)(=O)c4cccc5nccnc45)C3)C(=O)OC12C (stereo not drawn)
Output line: <0.06 µg/mL

* * *

# Tested on: Streptococcus pneumoniae 1175
# Type: cell-based
# particulars: S. pneumoniae 1175 (mefA); microtiter broth dilution
Answer each item with its documented MIC S. pneumo. 1175.
Quick note: unit goes after the number.

{"molecule": "CC[C@H]1OC(=O)[C@H](C)C(=O)[C@H](C)[C@@H](O[C@@H]2O[C@H](C)C[C@H](N(C)C)[C@H]2O)[C@](C)(OC)C[C@@H](C)C(=O)[C@H](C)[C@H]2N(CC3(C)CN(C(=O)c4ccc5ncccc5c4)C3)C(=O)O[C@]12C.O=CO", "MIC S. pneumo. 1175": "2 µg/mL"}

Input line: Need MIC S. pneumo. 1175, item CCC1OC(=O)C(C)C(=O)C(C)C(OC2OC(C)CC(N(C)C)C2O)C(C)(OC)CC(C)C(=O)C(C)C2N(CC3CCN(Cc4c[nH]c5cc(=O)[nH]cc45)C3)C(=O)OC12C (centres unmarked)
Output line: 4 µg/mL

* * *

Answer each item with its documented MIC S. pneumo. 1175.
# System: Streptococcus pneumoniae 1175
# Assay type: cell-based
# particulars: Streptococcus pneumoniae 1175; microtiter broth dilution
# From the text: The assay described herein includes a panel of bacterial strains assembled to include a variety of target pathogenic species, including representatives of macrolide resistance mechanisms that have been characterized. In many cases, both the macrolide-susceptible parent strain and the macrolide-resistant strain derived from it are available to provide a more accurate assessment of the compound's ability to circumvent the resistance mechanism. […]
Give bare numbers, in µg/mL.

{"molecule": "CCC1OC(=O)C(C)C(=O)C(C)C(OC2OC(C)CC(N(C)C)C2O)C(C)(OC)CC(C)C(=O)C(C)C2N(C3CN(Cc4ccn[nH]4)C3)C(=O)OC12C (centres unmarked) [Example 1.18, (1H-pyrazol-5-yl)methyl]", "reading.unit": "µg/mL", "MIC S. pneumo. 1175": 2}
{"molecule": "CCC1OC(=O)C(C)C(=O)C(C)C(OC2OC(C)CC(N(C)C)C2O)C(C)(OC)CC(C)C(=O)C(C)C2N(C3CN(S(=O)(=O)c4ccc(C#N)cc4)C3)C(=O)OC12C (centres unmarked) [Example 3.11]", "reading.unit": "µg/mL", "MIC S. pneumo. 1175": 0.5}

Input line: Need MIC S. pneumo. 1175, item CCC1OC(=O)C(C)C(=O)C(C)C(OC2OC(C)CC(N(C)C)C2O)C(C)(OC)CC(C)C(=O)C(C)C2N(C3CN(S(=O)(=O)c4cccc(-c5nnco5)c4)C3)C(=O)OC12C (centres unmarked) [Example 3.62]
Output line: 0.5

* * *

# System: Haemophilus influenzae 1218
# protocol.notes: MIC, microtiter broth dilution (NCCLS M100-S14), H. influenzae 1218 (susceptible)
# Type: cell-based
# particulars: Haemophilus influenzae 1218
# Excerpt: The assay described herein includes a panel of bacterial strains assembled to include a variety of target pathogenic species, including representatives of macrolide resistance mechanisms that have been characterized. In many cases, both the macrolide-susceptible parent strain and the macrolide-resistant strain derived from it are available to provide a more accurate assessment of the compound's ability to circumvent the resistance mechanism. […]
recorded.metric: MIC H. influenzae 1218
Quick note: unit goes after the number.

# example entries with known answers
{"molecule": "CCC1OC(=O)C(C)C(=O)C(C)C(OC2OC(C)CC(N(C)C)C2O)C(C)(OC)CC(C)C(=O)C(C)C2N(C3CN(Cc4ccncc4F)C3)C(=O)OC12C (stereo not drawn)", "MIC H. influenzae 1218": "1 mg/L"}
{"molecule": "CCC1OC(=O)C(C)C(=O)C(C)C(OC2OC(C)CC(N(C)C)C2O)C(C)(OC)CC(C)C(=O)C(C)C2N(C3CN(S(=O)(=O)c4cccc(-c5cccnn5)c4)C3)C(=O)OC12C (stereo not drawn)", "MIC H. influenzae 1218": "1 mg/L"}

Kindly review the next molecule as well.
Input line: Write down the reported MIC H. influenzae 1218 of CCC1OC(=O)C(C)C(=O)C(C)C(OC2OC(C)CC(N(C)C)C2O)C(C)(OC)CC(C)C(=O)C(C)C2N(C3CN(S(=O)(=O)c4ccc5ccccc5c4)C3)C(=O)OC12C (stereo not drawn) , test system: Haemophilus influenzae 1218.
Output line: 0.12 mg/L

* * *

# Test system: Streptococcus pneumoniae 1175
# Format: cell-based
# particulars: Streptococcus pneumoniae 1175; microtiter broth dilution
recorded.metric: MIC S. pneumo. 1175

# example entries with known answers
{"compound": "CCC1OC(=O)C(C)C(=O)C(C)C(OC2OC(C)CC(N(C)C)C2O)C(C)(OC)CC(C)C(=O)C(C)C2N(C3CN(Cc4c(Cl)cnc5[nH]cnc45)C3)C(=O)OC12C (centres unmarked)", "MIC S. pneumo. 1175": "<0.063 µg/mL"}
{"compound": "CCC1OC(=O)C(C)C(=O)C(C)C(OC2OC(C)CC(N(C)C)C2O)C(C)(OC)CC(C)C(=O)C(C)C2N(C3CN(Cc4ccnc5c(OC)cccc45)C3)C(=O)OC12C (centres unmarked)", "MIC S. pneumo. 1175": "<0.063 µg/mL"}
{"compound": "CCC1OC(=O)C(C)C(=O)C(C)C(OC2OC(C)CC(N(C)C)C2O)C(C)(OC)CC(C)C(=O)C(C)C2N(C3CN(Cc4c(Br)cnc5ncccc45)C3)C(=O)OC12C (centres unmarked)", "MIC S. pneumo. 1175": "<0.063 µg/mL"}
{"compound": "CC[C@H]1OC(=O)[C@H](C)C(=O)[C@H](C)[C@@H](O[C@@H]2O[C@H](C)C[C@H](N(C)C)[C@H]2O)[C@](C)(OC)C[C@@H](C)C(=O)[C@H](C)[C@H]2N(C3CN(Cc4c(C#N)cnc5ccccc45)C3)C(=O)O[C@]12C", "MIC S. pneumo. 1175": "<0.063 µg/mL"}

Kindly review the next compound as well.
Input line: Need MIC S. pneumo. 1175, item CCC1OC(=O)C(C)C(=O)C(C)C(OC2OC(C)CC(N(C)C)C2O)C(C)(OC)CC(C)C(=O)C(C)C2N(C3CN(C(C)c4ccnc5ncccc45)C3)C(=O)OC12C (centres unmarked)
Output line: 0.25 µg/mL

* * *

# Tested on: Streptococcus pneumoniae 1175
# Format: cell-based
# particulars: Streptococcus pneumoniae 1175; microtiter broth dilution
recorded.metric: MIC S. pneumo. 1175

Count: 5. Required value per item: MIC S. pneumo. 1175.
1. CC[C@H]1OC(=O)[C@H](C)[C@@H](OC(=O)N2CCCC2c2cccc(F)c2)[C@H](C)[C@@H](O[C@@H]2O[C@H](C)C[C@H](N(C)C)[C@H]2O)[C@](C)(OC)C[C@@H](C)C(=O)[C@H](C)[C@H]2N(CC3CN(Cc4c[nH]c5ncccc45)C3)C(=O)O[C@]12C (stereo partly drawn) [Example 5.05]
2. CCC1OC(=O)C(C)C(=O)C(C)C(OC2OC(C)CC(N(C)C)C2O)C(C)(OC)CC(C)C(=O)C(C)C2N(C3CN(C(=O)c4ccc(-n5cccn5)nc4)C3)C(=O)OC12C (stereo not drawn)
3. CCC1OC(=O)C(C)C(=O)C(C)C(OC2OC(C)CC(N(C)C)C2O)C(C)(OC)CC(C)C(=O)C(C)C2N(C3CN(S(=O)(=O)c4cccc(-n5cccn5)c4)C3)C(=O)OC12C (stereo not drawn)
4. CCC1OC(=O)C(C)C(=O)C(C)C(OC2OC(C)CC(N(C)C)C2O)C(C)(OC)CC(C)C(=O)C(C)C2N(C3CN(S(=O)(=O)c4ccc(F)c(-c5cnco5)c4)C3)C(=O)OC12C (stereo not drawn)
5. CCC1OC(=O)C(C)C(=O)C(C)C(OC2OC(C)CC(N(C)C)C2O)C(C)(OC)CC(C)C(=O)C(C)C2N(C3CN(Cc4ccn(-c5ccccn5)n4)C3)C(=O)OC12C (stereo not drawn)

Output line:
1: 0.5 µg/mL; 2: 0.12 µg/mL; 3: <0.06 µg/mL; 4: <0.06 µg/mL; 5: 0.12 µg/mL

Input line: Need MIC S. pneumo. 1175, item CCC1OC(=O)C(C)C(=O)C(C)C(OC2OC(C)CC(N(C)C)C2O)C(C)(OC)CC(C)C(=O)C(C)C2N(C3CN(S(=O)(=O)c4ccc(Oc5ccncc5)cc4)C3)C(=O)OC12C (stereo not drawn)
Output line: 8 µg/mL
